So I've got IC50 readings for VEGFR2 tyrosine kinase (Homo sapiens, UniProt P35968), take a look.
Numbers only; they are read as nM.

COMPOUND: CCN(CC)CCNC(=O)c1c(C)[nH]c(/C=C2\C(=O)Nc3ccc(F)cc32)c1Cl [Compound 14h]
RESULT_VALUE: 6.8
//
COMPOUND: CCNCCNC(=O)c1c(Cl)[nH]c(/C=C2\C(=O)Nc3ccc(F)cc32)c1C [Compound 14p]
RESULT_VALUE: 6

Query block: Entry CCNCCNC(=O)c1c(C)[nH]c(/C=C2\C(=O)Nc3ccc(F)cc32)c1Cl [Compound 14g] has what IC50?
Result block: 5

Query block: Entry Cc1[nH]c(/C=C2\C(=O)Nc3ccc(F)cc32)c(Cl)c1C(=O)NCCN(C)C [Compound 14f] has what IC50?
Result block: 6.2

Query block: Entry CCNCCNC(=O)c1c(Cl)[nH]c(/C=C2\C(=O)Nc3ccc(F)cc32)c1CC [Compound 14r] has what IC50?
Result block: 8.7

Query block: Entry Cc1[nH]c(/C=C2\C(=O)Nc3ccc(F)cc32)c(Cl)c1C(=O)NC1CNC1 [Compound 14c] has what IC50?
Result block: 6.8

Query block: Entry CCN(CC)CCNC(=O)c1c(C)[nH]c(/C=C2\C(=O)Nc3ccc(Cl)cc32)c1Cl [Compound 14i] has what IC50?
Result block: 11.2
